# Test system: KNS-42
# ASSAY_DETAILS: Loewe synergy score (Combenefit); higher = more synergy; extreme values may be limits of the assay
# EXPERIMENTAL_CONTEXT: exposure time: 72 h
Label Yes when Loewe synergy score >= 6; otherwise No.

COMPOUND	SYSTEM_TESTED	DISCRETE_LABEL
CC(=O)O[C@@]12CO[C@@H]1C[C@H](O)[C@@]1(C)C(=O)[C@H](O)C3=C(C)[C@@H](OC(=O)[C@H](O)[C@@H](NC(=O)OC(C)(C)C)c4ccccc4)C[C@@](O)([C@@H](OC(=O)c4ccccc4)[C@H]21)C3(C)C [Docetaxel] + CCC(=O)N1CCN(c2ccc(-n3c(=O)ccc4cnc5ccc(-c6cnc7ccccc7c6)cc5c43)cc2C(F)(F)F)CC1 [Torin1]	KNS-42	Yes
CCC(=O)N1CCN(c2ccc(-n3c(=O)ccc4cnc5ccc(-c6cnc7ccccc7c6)cc5c43)cc2C(F)(F)F)CC1 [Torin1] + N#CC(c1ccnc(NCCc2cccnc2)n1)c1nc2ccccc2s1 [AS601245]	KNS-42	No
CO[C@H]1C[C@@H]2CC[C@@H](C)[C@@](O)(O2)C(=O)C(=O)N2CCCC[C@H]2C(=O)O[C@H]([C@H](C)C[C@@H]2CC[C@@H](O)[C@H](OC)C2)CC(=O)[C@H](C)/C=C(\C)[C@@H](O)[C@@H](OC)C(=O)[C@H](C)C[C@H](C)/C=C/C=C/C=C/1C [Rapamycin] + CCOc1nc(NC(=O)Cc2cc(OC)ccc2OC)cc(N)c1C#N [JNK inhibitor VIII]	KNS-42	Yes
O=c1[nH]c2ccccc2n1C1CCN(Cc2ccc(-c3[nH]c4cc5ncnc5cc4nc3-c3ccccc3)cc2)CC1 [Akt inhibitor VIII] + N#CC(c1ccnc(NCCc2cccnc2)n1)c1nc2ccccc2s1 [AS601245]	KNS-42	No
Nc1ccn([C@@H]2O[C@H](CO)[C@@H](O)C2(F)F)c(=O)n1 [Gemcitabine] + C=CCc1cccc(/C=N/NC(=O)CN2CCN(Cc3ccccc3)CC2)c1O [PAC-1]	KNS-42	Yes
C[C@@H](Oc1cc(-c2cnn(C3CCNCC3)c2)cnc1N)c1c(Cl)ccc(F)c1Cl [Crizotinib] + Cc1cc([C@@H](C)Nc2ccccc2C(=O)O)c2nc(N3CCOCC3)cc(=O)n2c1 [AZD6482]	KNS-42	No
C[C@@H](Oc1cc(-c2cnn(C3CCNCC3)c2)cnc1N)c1c(Cl)ccc(F)c1Cl [Crizotinib] + CCOc1nc(NC(=O)Cc2cc(OC)ccc2OC)cc(N)c1C#N [JNK inhibitor VIII]	KNS-42	No
CCC(=O)N1CCN(c2ccc(-n3c(=O)ccc4cnc5ccc(-c6cnc7ccccc7c6)cc5c43)cc2C(F)(F)F)CC1 [Torin1] + CCCCCCCCCCCC1=C(O)C(=O)C=C(O)C1=O [Embelin]	KNS-42	No
